# STUDY SYSTEM: T1, human a-Mesothelin (Acro Biosystems; MSN_H5223) (human, UniProt Q13421 296-580, limits assumed)
# T1 construct: Bought protein immobilised on the SPR chip; Printed as 'a-Mesothelin' but used as the antigen for the anti-MSLN scFvs; also called Human MSLN; MSLN
# T1 sequence (Q13421 other isoform, or with tags, fused parts or gaps limits assumed): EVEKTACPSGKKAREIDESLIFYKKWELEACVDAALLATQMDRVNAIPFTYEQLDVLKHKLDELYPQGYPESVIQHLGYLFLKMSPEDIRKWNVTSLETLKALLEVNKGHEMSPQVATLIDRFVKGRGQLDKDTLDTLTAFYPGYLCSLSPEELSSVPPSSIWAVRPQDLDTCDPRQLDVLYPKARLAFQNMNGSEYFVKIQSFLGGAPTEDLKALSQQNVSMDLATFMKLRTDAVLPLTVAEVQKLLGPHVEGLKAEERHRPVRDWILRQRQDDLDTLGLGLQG
# TEST DETAILS: SPR, mesothelin immobilised, scFv analyte, 1:1 fit
ASSAY METRIC: Kd

Exam item: Please report Kd for the following binder: PRO2994 (scFv 54-21-H03-sc01_(P48A)) (scFv, PRO1922 variant; VH substitution, AHo numbering; also called PRO1922 P48A) scFv: DIQMTQSPSSLSASVGDRVTITCQASESIYSSLAWYQQKPGKAPKLLIYLASTLASGVPSRFSGSGSGTDFTLTISSLQPEDFATYYCQSTDYTTSTHRNSFGTGTKVTVLGGGGGSGGGGSGGGGSGGGGSEVQLVESGGGLVQPGGSLRLSCAASGFSFSTTYYMCWVRQAAGKGLEWIGCTNTASSVRTYYATWAKGRFTISRDNSKNTVYLQMNSLRAEDTAVYYCARDMGFADYALNLWGQGTLVTVSS
Marked response: 1.5 nM

Exam item: Please report Kd for the following binder: PRO3326 (scFv 54-21-H03-sc01_(T101Q, T146Q)) (scFv, PRO1922 variant; VH substitutions, AHo numbering; also called PRO1922 T101Q-T146Q) scFv: DIQMTQSPSSLSASVGDRVTITCQASESIYSSLAWYQQKPGKAPKLLIYLASTLASGVPSRFSGSGSGTDFTLTISSLQPEDFATYYCQSTDYTTSTHRNSFGTGTKVTVLGGGGGSGGGGSGGGGSGGGGSEVQLVESGGGLVQPGGSLRLSCAASGFSFSTTYYMCWVRQAPGKGLEWIGCTNTASSVRTYYATWAKGRFTISRDNSKNTVYLQMNSLRAEDQAVYYCARDMGFADYALNLWGQGTLVQVSS
Marked response: 1.8 nM

Exam item: Please report Kd for the following binder: PRO2942 (scFv 54-21-H03-sc01_(T146R)) (scFv, PRO1922 variant; VH substitution, AHo numbering; also called PRO1922 T146R) scFv: DIQMTQSPSSLSASVGDRVTITCQASESIYSSLAWYQQKPGKAPKLLIYLASTLASGVPSRFSGSGSGTDFTLTISSLQPEDFATYYCQSTDYTTSTHRNSFGTGTKVTVLGGGGGSGGGGSGGGGSGGGGSEVQLVESGGGLVQPGGSLRLSCAASGFSFSTTYYMCWVRQAPGKGLEWIGCTNTASSVRTYYATWAKGRFTISRDNSKNTVYLQMNSLRAEDTAVYYCARDMGFADYALNLWGQGTLVRVSS
Marked response: 1.3 nM
